method-description: Quantitative High-Throughput drug screen in 47 multiple myeloma cell lines against the NCATS MIPE library collection: KMS28BM_JCRB cell viability assay (AID 1919874); also: nearly all actives have a fitted effect of over 35% in size
condition-info: CellTiter-Glo ATP, 48 h; series mostly up to 45.8 µM
Inconclusive results are not listed. Active and inactive are the calls of the source. Calls follow the shape of the dose curve; as a rule, active = well fitted cell-killing curve with a large enough effect; inconclusive = small, poorly fitted or top-dose-only effect, or effect the other way; inactive = no such curve, though single readings can be large or run the other way.
Answer with one of the outcomes Yes (active), No (inactive)

Example entries begin here.
[in] Could you check what this test reported for `CS(=O)(=O)Oc1ccc2c(NC(N)=O)c(C(=O)c3ccc(Cl)cc3Cl)oc2c1` ?
[out] Yes

[in] Could you check what this test reported for `C#Cc1cccc(Nc2ncnc3cc(OCCOC)c(OCCOC)cc23)c1` ?
[out] Yes

[in] Could you check what this test reported for `Cc1[nH]c(=O)c(C#N)cc1-c1ccncc1` ?
[out] Yes

[in] Could you check what this test reported for CCn1cc(C(=O)O)c(=O)c2cc(F)c(N3CCNC(C)C3)c(F)c21 (stereo unspecified) ?
[out] No

[in] Could you check what this test reported for `CNC(=O)c1ccc(N2C(=S)N(c3ccc(C#N)c(C(F)(F)F)c3)C(=O)C2(C)C)cc1F` ?
[out] No

Next compound, please.
[in] Could you check what this test reported for `CCOc1ccc(Cc2cc([C@@H]3O[C@H](CO)[C@@H](O)[C@H](O)[C@@H]3O)ccc2Cl)cc1` ?
[out] No

* * *

method-description: Quantitative High-Throughput drug screen in 47 multiple myeloma cell lines against the NCATS MIPE library collection: Karpas620_DSMZ cell viability assay (AID 1918959); also: nearly all actives have a fitted effect of over 30% in size
condition-info: Karpas620 myeloma viability, CellTiter-Glo ATP luminescence, 48 h; series mostly up to 45.8 µM
Records with an inconclusive call do not appear. Activity calls are given as the source filed them. Calls follow the shape of the dose curve; as a rule, active = well fitted cell-killing curve with a large enough effect; inconclusive = small, poorly fitted or top-dose-only effect, or effect the other way; inactive = no such curve, though single readings can be large or run the other way.
Answer with one of the outcomes active, inactive

Example entries begin here.
[in] Could you check what this test reported for `O=C(O)CCc1ccc(NCc2cccc(Oc3ccccc3)c2)cc1` ?
[out] inactive

[in] Could you check what this test reported for `NCCc1ccc(O)c(O)c1` ?
[out] active

[in] Could you check what this test reported for `COc1cc2nccc(Oc3ccc(NC(=O)NC4CC4)c(Cl)c3)c2cc1C(N)=O` ?
[out] inactive

[in] Could you check what this test reported for `C[C@H](NC(=O)Cc1cc(F)cc(F)c1)C(=O)N[C@@H]1C(=O)N(C)c2ccccc2-c2ccccc21` ?
[out] inactive

[in] Could you check what this test reported for COc1cccc2cc(-c3nc(C4CCC(C(=O)O)CC4)n4ncnc(N)c34)[nH]c12 (centres undefined) ?
[out] active

[in] Could you check what this test reported for `O=C(Nc1cccnc1)N1CCC(Cc2cccc(Oc3ccc(C(F)(F)F)cn3)c2)CC1` ?
[out] active

[in] Could you check what this test reported for `NC(=O)c1cnccn1` ?
[out] inactive

[in] Could you check what this test reported for `COc1ccc([C@@H]2CC(=O)c3c(O)cc(O[C@@H]4O[C@H](CO[C@@H]5O[C@@H](C)[C@H](O)[C@@H](O)[C@@H]5O)[C@@H](O)[C@H](O)[C@@H]4O)cc3O2)cc1O` ?
[out] inactive

***
[in] Could you check what this test reported for CC(=O)NC(C)c1ccc(Oc2ccc(OC(C)C)cc2)cc1 (centres undefined) ?
[out] active

[in] Could you check what this test reported for `O=C(NOC[C@H](O)CO)c1ccc(F)c(F)c1Nc1ccc(I)cc1F` ?
[out] active

[in] Could you check what this test reported for `O=C1CCc2cc(OCCCCc3nnnn3C3CCCCC3)ccc2N1` ?
[out] inactive

[in] Could you check what this test reported for `Nc1nc2[nH]cc(CCc3ccc(C(=O)N[C@@H](CCC(=O)O)C(=O)O)cc3)c2c(=O)[nH]1` ?
[out] inactive

* * *

System: CP215
method-description: qHTS profiling for inhibitors of Plasmodium falciparum proliferation (AID 504749);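 also: 0% = DMSO vehicle and full inhibition = artemisinin control; nearly all actives have a fitted effect of over 60% in size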
condition-info: P. falciparum in erythrocytes, SYBR Green DNA, 72 h; series mostly up to 28.7 µM
Results filed as inconclusive are left out. Active and inactive are the calls of the source. Calls follow the shape of the dose curve; as a rule, active = well fitted inhibition curve with a large enough effect; inconclusive = small, poorly fitted or top-dose-only effect; inactive = flat fitted curve, though single readings scatter.
Answer with one of the outcomes Yes = active, No = inactive

Example entries begin here.
[in] Could you check what this test reported for `Cn1cnc([N+](=O)[O-])c1Sc1ncnc2nc[nH]c12` ?
[out] No

[in] Could you check what this test reported for `NNCCc1ccccc1` ?
[out] No

[in] Could you check what this test reported for `N#Cc1ccc(C(c2ccc(C#N)cc2)n2cncn2)cc1` ?
[out] No

Next compound, please.
[in] Could you check what this test reported for `Cc1[nH]c(=O)c(C#N)cc1-c1ccncc1` ?
[out] No

* * *

// values below are reported viability change
method-description: Nrf2 qHTS screen for inhibitors: Validation (AID 493153)
condition-info: A549 ARE-Fluc reporter, 18-24 h; measured here: cytotoxicity max response
Records with an inconclusive call do not appear.

[in] Return reported viability change; argument: OC(CCN1CCCCC1)(c1ccccc1)C1CC2C=CC1C2 (configuration not stated)
[out] -8.46%

[in] Return reported viability change; argument: `Clc1cccc(Cl)c1NC1=NCCN1`
[out] 0.846%

[in] Return reported viability change; argument: `NCCc1ccc(O)c(O)c1`
[out] 1.72%

***
[in] Return reported viability change; argument: `Cc1cn[nH]c1`
[out] 9.47%

[in] Return reported viability change; argument: O=C1CCC(N2C(=O)c3ccccc3C2=O)C(=O)N1 (configuration not stated)
[out] -1.75%

[in] Return reported viability change; argument: Oc1ccc(C2CNCCc3c2cc(O)c(O)c3Cl)cc1 (configuration not stated)
[out] 0.62%

[in] Return reported viability change; argument: `CNC[C@H](O)c1cccc(O)c1`
[out] -8.68%

* * *

method-description: Quantitative High-Throughput drug screen in 47 multiple myeloma cell lines against the NCATS MIPE library collection: Karpas620_DSMZ cell viability assay (AID 1918959); also: nearly all actives have a fitted effect of over 30% in size; also: potency is read from the fitted curve at half-maximal effect
condition-info: Karpas620 myeloma viability, CellTiter-Glo ATP luminescence, 48 h; series mostly up to 45.8 µM
Results filed as inconclusive are left out. Active and inactive are the calls of the source. The call rests on the fitted dose curve; in most records, active means well fitted cell-killing curve with a large enough effect; inconclusive means small, poorly fitted or top-dose-only effect, or effect the other way; inactive means no such curve, though single readings can be large or run the other way.
readout: Potency

Answered examples (4):
[in] Return reported Potency; argument: `Cc1cccc(-c2nn(C(=S)Nc3ccccc3)cc2-c2ccnc3ccccc23)n1`
[out] inactive

[in] Return reported Potency; argument: `O=c1[nH]cnc2[nH]ncc12`
[out] inactive

[in] Return reported Potency; argument: `N#Cc1ccc(C(c2ccc(C#N)cc2)n2cncn2)cc1`
[out] 18.7 µM (active)

[in] Return reported Potency; argument: CCn1cc(C(=O)O)c(=O)c2cc(F)c(N3CCNC(C)C3)c(F)c21 (stereo not given)
[out] inactive

Could you now consider this next molecule?
[in] Return reported Potency; argument: Cc1ccccc1C(OCCN(C)C)c1ccccc1 (stereo not given)
[out] inactive

* * *

System: Zika virus NS2B-NS3 protease (unlinked complex)
method-description: Primary screen GU Rhodamine qHTS for Zika virus inhibitors: Unlinked NS2B-NS3 protease assay (AID 1347159); also: nearly all actives have a fitted effect of over 60% in size
condition-info: Recombinant ZIKV NS2B-NS3 protease, Rhodamine110 substrate fluorescence; series mostly up to 107 µM
Records with an inconclusive call do not appear. Activity calls are given as the source filed them. Calls come from the whole dose curve; as a rule, active = well fitted inhibition curve with a large enough effect; inconclusive = small, poorly fitted or top-dose-only effect; inactive = no such curve, though single readings can be large or run the other way.
Answer with one of the outcomes active, inactive

Example entries begin here.
[in] Could you check what this test reported for `COc1cc(Nc2ncc3c(n2)-c2ccc(Cl)cc2C(c2c(F)cccc2OC)=NC3)ccc1C(=O)O` ?
[out] active

[in] Could you check what this test reported for `CNCc1ccc(-c2[nH]c3cc(F)cc4c3c2CCNC4=O)cc1` ?
[out] inactive

[in] Could you check what this test reported for `C[C@@H]1CN(Cc2ccc(F)cc2)[C@@H](C)CN1C(=O)c1cc2c(C(=O)C(=O)N(C)C)cn(C)c2cc1Cl` ?
[out] inactive

[in] Could you check what this test reported for `CC(C)OC(=O)C1=CN(C(=O)c2ccc(F)c(F)c2)CC(C)(C)c2c1[nH]c1ccccc21` ?
[out] inactive

[in] Could you check what this test reported for `O=C(NOC[C@H](O)CO)c1ccc(F)c(F)c1Nc1ccc(I)cc1F` ?
[out] active

[in] Could you check what this test reported for `S=C(NCc1ccc2c(c1)OCO2)N1CCN(c2ncnc3c2oc2ccccc23)CC1` ?
[out] inactive

[in] Could you check what this test reported for `CC(C)(Sc1ccc(CCN(CCCCC2CCCCC2)C(=O)NC2CCCCC2)cc1)C(=O)O` ?
[out] active

[in] Could you check what this test reported for `Cc1csc(NC(=O)c2sc3nc4c(c(C(F)(F)F)c3c2N)CCC4)n1` ?
[out] inactive

***
[in] Could you check what this test reported for COc1cccc2cc(-c3nc(C4CCC(C(=O)O)CC4)n4ncnc(N)c34)[nH]c12 (stereo unspecified) ?
[out] inactive

[in] Could you check what this test reported for O=C1CCCC2=C1C(c1[nH]ncc1Cl)N=C(Nc1nc3ccccc3o1)N2 (stereo unspecified) ?
[out] inactive

[in] Could you check what this test reported for `OCCn1cc(-c2cnc3nnn(Cc4ccc5ncccc5c4)c3n2)cn1` ?
[out] active

* * *

method-description: qHTS assay for measurement of the activity of small molecule inhibitors on Zika virus induced Caspase-3 activity in human astrocytoma cells (AID 1224859);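 also: plate controls were ZIKV-infected untreated cells for no effect and uninfected cells for full effect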
condition-info: SNB-19 ZIKV-induced caspase-3/7, luminescence, 6 h; series mostly up to 45.7 µM
The source made the active and inactive calls. Calls follow the shape of the dose curve; as a rule, active = well fitted inhibition curve with a large enough effect; inconclusive = small, poorly fitted or top-dose-only effect; inactive = no such curve, though single readings can be large or run the other way.
readout: outcome

Answered examples (6):
[in] Return reported outcome; argument: `CCCc1nc2c(C)cc(-c3nc4ccccc4n3C)cc2n1Cc1ccc(-c2ccccc2C(=O)O)cc1`
[out] inactive

[in] Return reported outcome; argument: `Cc1cc(C=c2sc3nc4ccccc4n3c2=O)c(C)n1-c1ccccc1`
[out] inactive

[in] Return reported outcome; argument: `NC(=O)c1cnccn1`
[out] inactive

[in] Return reported outcome; argument: `COCCNCCCn1c(C(=O)CF)c(-c2ccc(C)cc2)c2c(N)ncnc21`
[out] inactive

[in] Return reported outcome; argument: `COc1ccccc1-c1cccc(-c2c(O)c3cc(C#N)c(Cl)cc3[nH]c2=O)c1`
[out] inactive

[in] Return reported outcome; argument: `NC(=O)c1ccc(I)c([N+](=O)[O-])c1`
[out] inactive

***
[in] Return reported outcome; argument: `Clc1ccc(Nc2nnc(Cc3ccncc3)c3ccccc23)cc1`
[out] inactive

[in] Return reported outcome; argument: `CCc1cncnc1N1CCN(Cc2nc3ccc(C(F)(F)F)cc3[nH]2)CC1`
[out] inactive

[in] Return reported outcome; argument: `Cc1ccnc(NS(=O)(=O)c2ccc(NC(=O)Nc3ccc(S(=O)(=O)Nc4nccc(C)n4)cc3)cc2)n1`
[out] inactive

[in] Return reported outcome; argument: OC(CCN1CCCCC1)(c1ccccc1)C1CC2C=CC1C2 (stereo not drawn)
[out] inactive

[in] Return reported outcome; argument: `OC[C@H](Cc1ccccc1)Nc1nc(Oc2ccc3c(c2)CCC3)nc2c1ncn2Cc1ccc(-c2ccccc2)cc1`
[out] inactive

[in] Return reported outcome; argument: `Cc1csc(NC(=O)c2sc3nc4c(c(C(F)(F)F)c3c2N)CCC4)n1`
[out] inactive
